Can you tell me log10 of IC50 for the items I'm about to list?
The base-10 logarithm of IC50, taken with IC50 in nM, is what appears here.

Report log10 of IC50 for `COc1ccc(-c2c3c4cc(O)c(OCCCN(C)C)cc4[nH]c(=O)c3n3ccc4cc(O)c(OC)cc4c23)cc1O` tested on Epidermal growth factor receptor (Homo sapiens, UniProt P00533, L858R/T790M).
Sequence (P00533 25-1210 T790M/L858R limits assumed): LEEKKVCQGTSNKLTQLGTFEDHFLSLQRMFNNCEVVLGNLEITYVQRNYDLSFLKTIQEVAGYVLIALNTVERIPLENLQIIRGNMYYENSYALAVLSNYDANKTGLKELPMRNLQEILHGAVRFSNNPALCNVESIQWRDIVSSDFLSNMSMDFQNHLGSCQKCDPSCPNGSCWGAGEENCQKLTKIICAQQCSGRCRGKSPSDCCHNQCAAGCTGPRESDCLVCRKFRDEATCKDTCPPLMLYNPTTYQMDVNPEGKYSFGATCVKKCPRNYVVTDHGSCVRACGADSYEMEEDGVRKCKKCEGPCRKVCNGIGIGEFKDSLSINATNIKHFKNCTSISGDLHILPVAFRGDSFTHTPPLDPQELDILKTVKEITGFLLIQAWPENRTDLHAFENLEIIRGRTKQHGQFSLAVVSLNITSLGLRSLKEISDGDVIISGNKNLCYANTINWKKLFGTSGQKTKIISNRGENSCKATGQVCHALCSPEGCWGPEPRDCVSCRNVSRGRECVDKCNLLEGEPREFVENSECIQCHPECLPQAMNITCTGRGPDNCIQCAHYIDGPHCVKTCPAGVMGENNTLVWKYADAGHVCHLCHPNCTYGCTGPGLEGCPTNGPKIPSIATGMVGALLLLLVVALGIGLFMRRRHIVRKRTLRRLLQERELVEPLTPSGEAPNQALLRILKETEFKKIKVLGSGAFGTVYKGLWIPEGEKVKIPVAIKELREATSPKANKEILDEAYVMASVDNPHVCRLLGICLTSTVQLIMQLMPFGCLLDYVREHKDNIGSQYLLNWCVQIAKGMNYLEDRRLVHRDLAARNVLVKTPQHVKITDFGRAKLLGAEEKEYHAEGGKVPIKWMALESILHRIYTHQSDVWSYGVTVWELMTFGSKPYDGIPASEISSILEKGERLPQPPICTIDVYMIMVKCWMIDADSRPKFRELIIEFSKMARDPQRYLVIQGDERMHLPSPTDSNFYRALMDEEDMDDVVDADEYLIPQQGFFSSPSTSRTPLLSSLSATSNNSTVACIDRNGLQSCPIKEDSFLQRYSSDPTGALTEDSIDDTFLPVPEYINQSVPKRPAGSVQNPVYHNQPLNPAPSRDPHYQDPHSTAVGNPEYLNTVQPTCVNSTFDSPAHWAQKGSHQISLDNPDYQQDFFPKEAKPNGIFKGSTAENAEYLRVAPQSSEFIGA
1.01

Report log10 of IC50 for `COc1ccc(-c2c3c4cc(OCCCN(C)C)c(OCCCN(C)C)cc4[nH]c(=O)c3n3ccc4cc(O)c(OC)cc4c23)cc1O` tested on Epidermal growth factor receptor (Homo sapiens, UniProt P00533, L858R/T790M).
0.23

Report log10 of IC50 for `COc1ccc(-c2c3c4cc(OC)c(OC)cc4[nH]c(=O)c3n3ccc4cc(O)c(OC)cc4c23)cc1O` tested on Epidermal growth factor receptor (Homo sapiens, UniProt P00533, L858R/T790M).
1.81

Report log10 of IC50 for `COc1ccc(-c2c3c4cc(OC)c(OCCCN(C)C)cc4[nH]c(=O)c3n3ccc4cc(O)c(OC)cc4c23)cc1O` tested on Epidermal growth factor receptor (Homo sapiens, UniProt P00533, L858R/T790M).
0.76

Report log10 of IC50 for `COc1ccc(-c2c3c4cc(OCCCN(C)C)c(O)cc4[nH]c(=O)c3n3ccc4cc(O)c(OC)cc4c23)cc1O` tested on Epidermal growth factor receptor (Homo sapiens, UniProt P00533, L858R/T790M).
1.22
